Sourced from patent US20220177587A1

# TARGET: CD28 (Homo sapiens, UniProt P10747)
# EXPERIMENT: Flow binding to Jurkat/IL2 reporter cells (CD28)
# Parameters: host or cells: Jurkat cells expressing an IL-2-luciferase reporter
# CONDITION_LABEL: Table E23; CD80 IgV-Fc (inert) at 33.3 nM; Jurkat (CD28)

[
  {
    "MOLECULE": "H18V/A26G/E35D/M47V/V68M/A71G/D90G (protein, UniProt P33681 35-288, looked up, variant H18V A26G E35D M47V V68M A71G D90G) T-lymphocyte activation …: VIHVTKEVKEVATLSCGVNVSVEELGQTRIYWQKDKKMVLTMMSGDVNIWPEYKNRTIFDITNNLSIMILGLRPSDEGTYECVVLKYEKGAFKREHLAEVTLSVKADFPTPSISDFEIPTSNIRRIICSTSGGFPEPHLSWLENGEELNAINTTVSQDPETELYAVSSKLDFNMTTNHSFMCLIKYGHLRVNQTFNWNTTKQEHFPDNLLPSWAITLISVNGIFVICCLTYCFAPRCRERRRNERLRRESVRPV",
    "CD28 MFI at 33.3 nM": 8189
  }
]
